- study.system: Ceramide glucosyltransferase (Mus musculus)
- Sequence (O88693 whole entry): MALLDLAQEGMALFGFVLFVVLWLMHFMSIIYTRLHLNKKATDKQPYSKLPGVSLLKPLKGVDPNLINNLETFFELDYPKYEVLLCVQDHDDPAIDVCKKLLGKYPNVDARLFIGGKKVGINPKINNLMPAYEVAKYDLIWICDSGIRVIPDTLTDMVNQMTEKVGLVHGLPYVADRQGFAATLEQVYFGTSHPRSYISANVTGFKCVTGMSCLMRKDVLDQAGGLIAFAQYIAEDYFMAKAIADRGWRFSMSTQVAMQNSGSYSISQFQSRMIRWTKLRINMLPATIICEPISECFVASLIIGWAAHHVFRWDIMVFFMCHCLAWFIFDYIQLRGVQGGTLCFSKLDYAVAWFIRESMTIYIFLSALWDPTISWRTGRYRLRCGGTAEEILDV
- protocol.notes: Inhibition of glucosylceramide synthase in mouse RAW cells preincubated for 15 mins followed by substrate addition and measured after 1 hr by fluorescence scanner
Recorded IC50 by entry

compound.structure.string	IC50
OC[C@H]1[C@H](O)CCCN1CCCCCOCC12CC3CC(CC(C3)C1)C2	> 10 µM
CCCCN1CC=C[C@@H](O)[C@@H]1CO	> 10 µM
OC[C@H]1[C@H](O)C=CCN1CCCCCOCC12CC3CC(CC(C3)C1)C2	> 10 µM
C[C@@H]1[C@@H](O)[C@H](O)[C@@H](O)CN1CCCCCOCC12CC3CC(CC(C3)C1)C2	0.8 µM
OC[C@H]1NCC[C@@H](O)[C@H]1O	> 10 µM
OC[C@@H]1NCC=C[C@H]1O	> 10 µM
